Target: T1, Soluble heterodimeric CD3 protein (hCD3-epsilon/hCD3-delta) with either a human Fc tag (hFcΔAdp/hFc) or a … (human, UniProt P07766 23-126; P04234 22-105)
T1 construct: also called hCD3ε/δ; not shown: Fc tag: human (hFcΔAdp/hFc)
T1 sequence (P07766 23-126 limits assumed, stated change not applied, chain 1 of 2): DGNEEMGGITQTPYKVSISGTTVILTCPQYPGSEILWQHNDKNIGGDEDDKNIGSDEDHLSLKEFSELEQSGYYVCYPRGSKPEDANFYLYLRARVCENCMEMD
T1 sequence (P04234 22-105 limits assumed, stated change not applied, chain 2 of 2): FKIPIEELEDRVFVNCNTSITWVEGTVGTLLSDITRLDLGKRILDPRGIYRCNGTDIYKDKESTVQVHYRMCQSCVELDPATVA
Assay: SPR Biacore 25C antibody-capture
koff: recorded values
Please give a number only; it is taken to be in s⁻¹.

binder: H1H5778P (antibody, human IgG1, V domains shown, H1H: human IgG1 Fc; divalent) VH: EVQLVESGGGLVQPGRSLRLSCVASGFTFADFTMHWVRQAPGKGLEWVSGISWNSNSIDYADSVKGRFTISRDNAKKSLFLQMSSLRAEDTALYYCVKDRSGYSRFYYGMDVWGQGTTVTVSS VL: EIVMTQSPATLSVSPGERAILSCRASQNINSNLAWYQQKPGQAPRLLIYGASTRATGVPARFSGSGSGTEFTLTIRSLQSEDFAVYYCQQYYNWPITFGHGTRLEIK
reported: 0.000154
//
binder: H1H5763P (antibody, human IgG1, V domains shown, H1H: human IgG1 Fc; divalent) VH: QVQLVESGGGVVQPGRSLRLSCAASGLTFSSYGMHWVRQAPGKGLEWVAVISYDGSNKYYTDSVKGRFTISRDNSKNTLYLQMNSLRAEDTAVYYCAKGAMVRGVPYNYYYGMDVWGQGTTVTVSS VL: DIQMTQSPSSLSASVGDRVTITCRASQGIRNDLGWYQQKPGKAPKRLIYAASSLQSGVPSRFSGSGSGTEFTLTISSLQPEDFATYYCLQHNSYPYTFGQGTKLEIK
reported: 0.054

Please look at the following binder next.
For H1H5772S (antibody, V domains shown, H1H: human IgG1 Fc; divalent; also called H1H5772P) VH: QVQLVESGGGLVQPGRSLRLSCAASGFSFDDYAMHWVRQAPGQGLEWVSGISWNGGSRDYADSVKGRFTISRDNARNSLFLQMNSLFTEDTALYYCAKDKSGYGSYFYGMDVWGQGTTVTVSS VL: EIVLTQSPGILSLSPGDRATLSCRASQSIRNIYLAWYQQKPGQAPRLLIHGASTRATGIPDRFSGSGSGTDFTLTISRLEPEDFAVYYCQQRVSSPYTFGQGTKLEIK , what is its reported koff?
0.00155
